Value source: a melting point compilation (Tetko et al.; mined from patent text by program, amines drawn as free bases though some values may be those of a salt)

VALUE_KIND: melting point

[[record]]
molecule = "CC1CNC(CN(CC(=O)O)C(=O)c2ccccc2)c2ccccc21 (stereo unspecified)"
value_measured = "157 °C"

[[record]]
molecule = "COc1ccc(CS(=O)(=O)Cc2ccc(OC)cc2)cc1"
value_measured = "108 to 123 °C"

[[record]]
molecule = "O=C1C2=C(CCCC2)C(=O)N1c1cc(OC2CCCC2)c(Cl)cc1F"
value_measured = "69 to 75.2 °C"

[[record]]
molecule = "NC(=S)N(N)Cc1cccc(Cl)c1"
value_measured = "153 to 158 °C"

[[record]]
molecule = "O=[N+]([O-])c1cnc2cccnc2c1NCCOc1ccccc1"
value_measured = "107 to 108 °C"

[[record]]
molecule = "COc1c(C(C)=O)cnc2c(N)cccc12"
value_measured = "76 to 77 °C"

[[record]]
molecule = "CC(C)(C)c1cc(CCc2ccccc2NC(=O)NCC(C)(C)c2ccccc2F)cc(C(C)(C)C)c1O"
value_measured = "182 to 183 °C"

[[record]]
molecule = "COCc1cc(Cl)cc2c1OC(C(F)(F)F)C(C(=O)O)=C2 (stereo unspecified)"
value_measured = "167 to 168 °C"

[[record]]
molecule = "COc1cc2c(cc1OC)-c1c(O)c(OC)cc3c1C(C2)CN(C(=O)C(F)(F)F)C3 (stereo unspecified)"
value_measured = "210 to 217 °C"

[[record]]
molecule = "C=CC(=O)Nc1cccc2c(=O)c(C)c(-c3ccccc3)oc12"
value_measured = "229 to 230 °C"

[[record]]
molecule = "O=c1[nH]nnn1-c1ccc(C(F)(F)F)cc1"
value_measured = "191 to 192 °C"

